The origin of these recorded values is patent US10639304B2.

Test system: leukemic cells derived from ALL, AML, CML and CLL
Assay: Initial analysis of cytotoxicity in leukemic cells
Assay type: cell-based
Conditions: structure-activity summary
quantity.name: anti-leukemic activity

compound: CCc1cc2cc3c(cc2nc1SCC(=O)Nc1ccccc1OC)OCCO3 [ALD-12]
quantity.name: anti-leukemic activity
result: anti-leukemic activity
--
compound: CCc1cc2cc3c(cc2nc1SCC(=O)Nc1ccc(OC)cc1OC)OCCO3 [ALD-4]
quantity.name: anti-leukemic activity
result: anti-leukemic activity
--
compound: CCc1cc2cc3c(cc2nc1SCC(=O)Nc1ccccc1C)OCCO3 [ALD-10]
quantity.name: anti-leukemic activity
result: anti-leukemic activity

* * *

Target: Src (Homo sapiens, UniProt P12931)
Construct: reduced the levels of phosphorylated Src in K562 cells; endogenous in cells; host or cells: K562
Sequence (P12931 whole entry): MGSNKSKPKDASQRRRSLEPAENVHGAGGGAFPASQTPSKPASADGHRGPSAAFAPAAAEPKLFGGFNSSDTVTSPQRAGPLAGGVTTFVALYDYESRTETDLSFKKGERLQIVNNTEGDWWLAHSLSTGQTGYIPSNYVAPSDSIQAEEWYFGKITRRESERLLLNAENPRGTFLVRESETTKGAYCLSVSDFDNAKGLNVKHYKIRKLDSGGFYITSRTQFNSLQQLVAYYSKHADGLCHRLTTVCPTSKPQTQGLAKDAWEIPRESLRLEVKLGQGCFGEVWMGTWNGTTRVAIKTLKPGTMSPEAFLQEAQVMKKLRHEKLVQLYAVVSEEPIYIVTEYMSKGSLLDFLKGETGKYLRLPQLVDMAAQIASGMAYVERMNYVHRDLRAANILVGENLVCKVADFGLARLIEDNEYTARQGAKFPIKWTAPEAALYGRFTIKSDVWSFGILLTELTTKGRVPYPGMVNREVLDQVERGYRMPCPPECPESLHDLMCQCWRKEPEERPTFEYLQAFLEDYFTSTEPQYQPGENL
Assay: Src phosphorylation in K562 cells, Western blotting
Assay type: cell-based
Details: FIGS. 9 and 10

molecule.smiles: CCc1cc2cc3c(cc2nc1SCC(=O)Nc1ccccc1C)OCCO3
phosphorylation of Src: inhibited

molecule.smiles: CCc1cc2cc3c(cc2nc1SCC(=O)Nc1ccc(OC)cc1OC)OCCO3
phosphorylation of Src: inhibited

molecule.smiles: CCc1cc2cc3c(cc2nc1SCC(=O)Nc1ccccc1OC)OCCO3
phosphorylation of Src: inhibited
